# Test system: lepidopteran larvae: cabbage loopers (Trichoplusia ni) and beet armyworms (Spodoptera exigua)
# Format: in vivo
# condition.notes: plants; insecticide + amine oxide 1218, no buffer, 200:1; PPM: Chlorantranilopril 60, Acephate 70, Methoxyfenozide 100, Spinosad 30, Permethrin 10, Indoxacarb 50
# Method: In a first group of tests, the results of which are shown in Table 7 (pages 22-24), romaine lettuce plants two to three inches in height were exposed to 10 milliliters of solution applied to each plant using a low volume trigger spray. With respect to containers 0-7, ten plants were employed per container, nine were treated and one was an internal control. […] Percentage damage was evaluated by 5% increments for total damage across all plant leaves. […]
Listed next: entries and their corresponding Percent Lepidopteran Damage to Romaine Lettuce 24 hr.
property.label: Percent Lepidopteran Damage to Romaine Lettuce 24 hr (%)

# molecule, result.unit, experimental.result
records = [
    ("CC1(C)C(C=C(Cl)Cl)C1C(=O)OCc1cccc(Oc2ccccc2)c1 (centres unmarked)", "%", 72.0),
    ("CNC(=O)c1cc(Cl)cc(C)c1NC(=O)c1cc(Br)nn1-c1ncccc1Cl", "%", 5.5),
    ("COC(=O)N(C(=O)N1CO[C@@]2(C(=O)OC)Cc3cc(Cl)ccc3C2=N1)c1ccc(OC(F)(F)F)cc1", "%", 25.5),
    ("COP(=O)(NC(C)=O)SC (centres unmarked) [Acephate]", "%", 28.0),
    ("COc1cccc(C(=O)NN(C(=O)c2cc(C)cc(C)c2)C(C)(C)C)c1C [Methoxyfenozide]", "%", 13.0),
]

* * *

# System: lepidopteran larvae: cabbage loopers (Trichoplusia ni) and beet armyworms (Spodoptera exigua)
# Type: in vivo
# condition.notes: leaf discs; 24 hr; insecticide + buffered amine oxide system PO4, 12, 200:1; PPM: Chlorantranilopril 60, Acephate 70, Methoxyfenozide 100, Spinosad 30, Permethrin 10, Indoxacarb 50
Entries whose Percent Lepidopteran Damage to Romaine Lettuce 24 hr is below 50% take fulfilled; entries at or above 50% take not fulfilled.

# molecule, assigned.label
rows = [
    ("COC(=O)N(C(=O)N1CO[C@@]2(C(=O)OC)Cc3cc(Cl)ccc3C2=N1)c1ccc(OC(F)(F)F)cc1 [Indoxacarb]", "not fulfilled"),
    ("CC1(C)C(C=C(Cl)Cl)C1C(=O)OCc1cccc(Oc2ccccc2)c1 (centres unmarked) [Permethrin]", "fulfilled"),
    ("CNC(=O)c1cc(Cl)cc(C)c1NC(=O)c1cc(Br)nn1-c1ncccc1Cl [Chlorantranilopril]", "fulfilled"),
    ("COP(=O)(NC(C)=O)SC (centres unmarked) [Acephate]", "fulfilled"),
    ("COc1cccc(C(=O)NN(C(=O)c2cc(C)cc(C)c2)C(C)(C)C)c1C [Methoxyfenozide]", "not fulfilled"),
]

* * *

# Test system: lepidopteran larvae: cabbage loopers (Trichoplusia ni) and beet armyworms (Spodoptera exigua)
# Format: in vivo
# condition.notes: leaf discs; 72 hr; insecticide + amine oxide 12, no buffer, 200:1; PPM: Chlorantranilopril 60, Acephate 70, Methoxyfenozide 100, Spinosad 30, Permethrin 10, Indoxacarb 50
property.label: Percent Lepidopteran Damage to Romaine Lettuce 72 hr

# compound, experimental.result
records = [
    ("COP(=O)(NC(C)=O)SC (centres unmarked) [Acephate]", "59.5%"),
    ("COC(=O)N(C(=O)N1CO[C@@]2(C(=O)OC)Cc3cc(Cl)ccc3C2=N1)c1ccc(OC(F)(F)F)cc1 [Indoxacarb]", "61.5%"),
    ("CNC(=O)c1cc(Cl)cc(C)c1NC(=O)c1cc(Br)nn1-c1ncccc1Cl [Chlorantranilopril]", "8.5%"),
    ("CC1(C)C(C=C(Cl)Cl)C1C(=O)OCc1cccc(Oc2ccccc2)c1 (centres unmarked) [Permethrin]", "89.0%"),
    ("COc1cccc(C(=O)NN(C(=O)c2cc(C)cc(C)c2)C(C)(C)C)c1C [Methoxyfenozide]", "87.0%"),
]
